Measured values drawn from the supplement of paper PMC8728848 for this set.

Measured glycan array binding signal (z-score) of individual entries
Biological target: Fuc(a1-3)[Gal(b1-4)]GlcNAc(b1-3)GalNAc
Assay: glycan array binding signal (z-score within array); higher = stronger binding
Details: glycan notation: IUPAC condensed, linker removed
The full list was thinned out, with the strongest signals kept by preference.
Provide a numeric answer; units are not to be included.

// solved cases for glycan array binding signal (z-score) follow
[
  {
    "binder": "RobpsCRA (Robinia pseudoacacia) (protein) IKGGYWYSGSGLAVSDINPSHFTHLFCAFADLDPNTNKLTISSSNAAAFSTFTQTVRAKNPSVKTLLSIGGGGGRALAAVFANMASQASRRKSFIDSSIQLARRNNFHGLDLDWEYPSSDIDKTNFASLIREWRAAVATESSTSGTPALLLSAAVGGSDQITPLKYYPGEAIANNLDWVNVMTYDLYTSDSYPTLTQPPAPLFYPRGIFSADEGITKWIQSGVPESKLALGLPFYGFKWRLSDPNNHGLFAPATQGLGAVKYKDIVNTGGQVEFDSTYVTNYCFKGTDWYGYDDTQSISAKVAYAKQRGLFGYFAWHIEQDSNWALS",
    "test_value": 0.084
  },
  {
    "binder": "Strep tagII-anxA1 (Homo sapiens), P04083 (protein) MAMVSEFLKQAWFIENEEQEYVQTVKSSKGGPGSAVSPYPTFNPSSDVAALHKAIMVKGVDEATIIDILTKRNNAQRQQIKAAYLQETGKPLDETLKKALTGHLEEVVLALLKTPAQFDADELRAAMKGLGTDEDTLIEILASRTNKEIRDINRVYREELKRDLAKDITSDTSGDFRNALLSLAKGDRSEDFGVNEDLADSDARALYEAGERRKGTDVNVFNTILTTRSYPQLRRVFQKYTKYSKHDMNKVLDLELKGDIEKCLTAIVKCATSKPAFFAEKLHQAMKGVGTRHKALIRIMVSRSEIDMNDIKAFYQKMYGISLCQAILDETKGDYEKILVALCGGN",
    "test_value": -0.209
  },
  {
    "binder": "TAL6-4LysM (Trichoderma atroviride) (protein) AADSIPSISPTGIITPTPTQSGMVSNCNKFYDVHSNDGCSAIASSQHVDLSSLYKWNPAIKTDCSGLQASVYVCIGILTTSMSTTSKLPTTTSKPSTTSKPPTGITTPTPTQSGMVKNCNKFYDVHSGDGCSAIASSQKVNLSSFYLWNPAVKTDCSGLQASVFVCIGTLTTSMSTTTSKLPTTTSKPSTTSKPPTGIITPTPTQNGMVKNCNKFYDVHSGDGCSAIASSQKVNLSSFYLWNPAVKTDCSGLQASVFVCVGTATTTTAAGITTPTPTQSGMVSGCNKFYDVHAGDGCSAIASSQKIALSSLYKWNPAVKTDCSGLQASVYICIGVGNAAAARVTGALEQKLISEEDLNSAVDHHHHHH",
    "test_value": -0.606
  }
]

# next binder below
Return reported glycan array binding signal (z-score); argument: Banana lectin (Musa acuminata) (protein) MNGAIKVGAWGGNGGSAFDMGPAYRIISVKIFSGDVVDGVDVTFTYYGKTETRHYGGSGGTPHEIVLQEGEYLVGMAGEVANYHGAVVLGKLGFSTNKKAYGPFGNTGGTPFSLPIAAGKISGFFGRGGKFLDAIGVYLEPLEHHHHHH -0.268
